# Study Target: ROCK2 (Homo sapiens, UniProt O75116)
# Sequence (O75116 whole entry, species assumed): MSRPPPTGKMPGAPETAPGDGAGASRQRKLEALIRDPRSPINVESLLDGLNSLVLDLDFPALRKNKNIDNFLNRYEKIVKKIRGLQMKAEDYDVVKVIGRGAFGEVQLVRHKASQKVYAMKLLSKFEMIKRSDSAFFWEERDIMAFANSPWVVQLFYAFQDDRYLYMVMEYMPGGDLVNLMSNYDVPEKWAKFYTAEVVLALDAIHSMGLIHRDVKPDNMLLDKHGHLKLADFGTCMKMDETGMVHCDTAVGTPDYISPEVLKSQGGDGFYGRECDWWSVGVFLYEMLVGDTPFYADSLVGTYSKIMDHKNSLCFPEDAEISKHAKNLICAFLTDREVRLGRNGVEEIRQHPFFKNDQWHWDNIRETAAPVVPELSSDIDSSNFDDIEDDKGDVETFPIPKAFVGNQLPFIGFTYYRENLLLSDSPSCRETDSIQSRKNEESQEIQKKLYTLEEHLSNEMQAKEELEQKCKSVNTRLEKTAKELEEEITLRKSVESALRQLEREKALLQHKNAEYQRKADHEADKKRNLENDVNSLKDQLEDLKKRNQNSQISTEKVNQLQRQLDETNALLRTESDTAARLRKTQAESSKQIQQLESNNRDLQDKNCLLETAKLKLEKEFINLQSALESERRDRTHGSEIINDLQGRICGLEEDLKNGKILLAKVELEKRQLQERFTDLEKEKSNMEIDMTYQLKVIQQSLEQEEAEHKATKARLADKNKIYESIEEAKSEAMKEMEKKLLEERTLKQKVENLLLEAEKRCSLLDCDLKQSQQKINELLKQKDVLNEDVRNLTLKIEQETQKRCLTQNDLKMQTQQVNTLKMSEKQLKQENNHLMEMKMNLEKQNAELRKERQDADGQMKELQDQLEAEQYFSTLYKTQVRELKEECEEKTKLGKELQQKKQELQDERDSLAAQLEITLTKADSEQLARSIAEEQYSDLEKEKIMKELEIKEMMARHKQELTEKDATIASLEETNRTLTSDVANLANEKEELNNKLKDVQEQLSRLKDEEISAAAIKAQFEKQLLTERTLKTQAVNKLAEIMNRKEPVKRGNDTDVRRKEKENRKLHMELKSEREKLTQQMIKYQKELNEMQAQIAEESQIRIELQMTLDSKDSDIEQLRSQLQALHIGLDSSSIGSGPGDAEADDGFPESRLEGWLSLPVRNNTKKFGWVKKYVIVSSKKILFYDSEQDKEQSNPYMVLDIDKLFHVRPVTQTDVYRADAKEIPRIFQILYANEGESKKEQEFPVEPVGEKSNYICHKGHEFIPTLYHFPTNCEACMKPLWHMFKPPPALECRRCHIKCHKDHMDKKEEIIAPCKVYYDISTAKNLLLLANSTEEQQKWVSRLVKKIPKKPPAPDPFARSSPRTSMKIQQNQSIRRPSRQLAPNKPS
# Protocol Details: ROCK2 kinase inhibition assay (Caliper LABCHIP, FITC peptide substrate)
# Type: biochemical
# Assay Context: 5 μM ATP, 1.5 μM peptide substrate; value ranges
pIC50: −log10 of the molar value. Where a name gives a salt, the structure may show the parent alone.
Reported Property: pIC50

Some entries whose results are on file:
{"Molecule": "O=c1n(Cc2cccc(F)c2)ccn1-c1ccc(-c2cn[nH]c2)cc1 [Example 321]", "pIC50": "7.70 to 8.68"}
{"Molecule": "CCc1nc(N2CCN(C(C)c3cccc(OCC4CC4)c3)C2=O)ccc1-c1cn[nH]c1 (single isomer, unassigned) [Example 265]", "pIC50": "6.70 to 7.70"}
{"Molecule": "COc1cc(N2C(=O)CN(Cc3cccc(F)c3)C2=O)ccc1-c1cn[nH]c1 [Example 90]", "pIC50": "6.70 to 7.70"}
{"Molecule": "COc1cc(N2CCN(Cc3ccccc3-c3cn[nH]c3)C2=O)ccc1-c1cn[nH]c1 [Example 31, TFA]", "pIC50": "6.70 to 7.70"}
{"Molecule": "COc1cc(N2C(=O)CN(CCc3ccccc3)C2=O)ccc1-c1cn[nH]c1 [Example 97]", "pIC50": "5.70 to 6.70"}

**Query** Lab note: ROCK2 (Homo sapiens, UniProt O75116) assay, enter pIC50 for COc1cccc(Cn2ccn(-c3ccc(-c4cn[nH]c4)c(OC)c3)c2=O)c1 [Example 342] here
**Result** > 8.70

**Query** Look up and report pIC50, with ROCK2 (Homo sapiens, UniProt O75116) as system, for COc1cccc([C@@H](C)N2CCN(c3ccc(-c4cn[nH]c4)c(OC)c3)C2=O)c1 [Example 13]
**Result** > 8.70

**Query** Answer with pIC50 of COc1cccc(CN2CCN(c3ccc(-c4cn[nH]c4)cc3)C2=O)c1F [Example 116] measured for ROCK2 (Homo sapiens, UniProt O75116).
**Result** 6.70 to 7.70
